- Tested on: Lgr5 (MarsCy1-Lgr5-EGFP, U2OS)
- protocol-text: cell-surface Lgr5 expression (SCi1 fluorescence, background-subtracted) relative to WT DMSO (fold of DMSO control); higher = more Lgr5 at the plasma membrane, active = hit call of the paper
- condition-notes: U2OS MarsCy1-Lgr5-EGFP stable; treatment time: overnight; 16 µM; library: Johns Hopkins Clinical Compound Library
The whole screen tested about 1,200 compounds, of which about 50 (4%) showed activity. This is one part of a sample in which actives are shown more often than they occur.
Short version: cell-surface Lgr5 expression at least 1 is Satisfied, less is Not satisfied.

Worked cases, answers included:
In [3]: df
Out[3]:
                                   compound  classification
0  CCCCNc1ccc(C(=O)OCCOCCOCCOCCOCCOCCOCCOCCOCCOC)cc1 [Benzonatate]       Satisfied
1  Cc1cc2nc3ccc(N(C)C)cc3[s+]c2cc1N [Tolonium chloride (Toluidine blue O)]       Satisfied
2  CCOC(=O)[C@H](CCc1ccccc1)N[C@@H](C)C(=O)N1Cc2ccccc2C[C@H]1C(=O)O       Satisfied
3  CC(=O)O[C@]1(C(C)=O)CC[C@H]2[C@@H]3C=C(C)C4=CC(=O)CC[C@]4(C)[C@H]3CC[C@@]21C [Megestrol Acetate]       Satisfied
4  CC(=O)O[C@]1(C(C)=O)CC[C@H]2[C@@H]3C=C(Cl)C4=CC(=O)CC[C@]4(C)[C@H]3CC[C@@]21C [Chlormadinone acetate]       Satisfied

[in] Tell me whether cell-surface Lgr5 expression is at least 1 here: O.O.O.O.O.O.[Br-].[Br-].[Sr+2] [Strontium bromide hexahydrate]
[out] Not satisfied

###

- Tested on: Lgr5 (MarsCy1-Lgr5-EGFP, U2OS)
- protocol-text: cell-surface Lgr5 expression (SCi1 fluorescence, background-subtracted) relative to WT DMSO (fold of DMSO control); higher = more Lgr5 at the plasma membrane, active = hit call of the paper
- condition-notes: U2OS MarsCy1-Lgr5-EGFP stable; treatment time: overnight; 16 µM; library: Johns Hopkins Clinical Compound Library
Where a name gives a salt, the structure may show the parent alone. The whole screen tested about 1,200 compounds, of which about 50 (4%) showed activity. Rule as the data show it: all actives reach 1.3 or more but so do some inactives. The entries come from a sample that favours actives as a whole.
I would appreciate it if you answered using one of these outcomes: Yes (active), No (inactive)

Worked cases, answers included:
                                   compound  classification
0  CCN(CC)CCOc1ccc2c(c1)C(=O)c1cc(OCCN(CC)CC)ccc1-2 [Tilorone dihydrochloride]             Yes
1                   Br.N [Ammonium bromide]              No
2  CCCCCCCCCCCCCCCCCC(=O)[O-].CCCCCCCCCCCCCCCCCC(=O)[O-].[Zn+2] [Zinc stearate]              No
3  c1ccc(CN(CC2=NCCN2)c2ccccc2)cc1 [Antazoline]              No
4  c1ccc(CN(CC2=NCCN2)c2ccccc2)cc1 [Antazoline phosphate salt]              No

We next turn to a different compound, shown below.
[in] Short answer needed: outcome of this test for CC(C)COCC(CN(Cc1ccccc1)c1ccccc1)N1CCCC1 (stereo unspecified) ?
[out] Yes
